# target-under-test: Human Testicular 17α-Hydroxylase (Homo sapiens, UniProt P05093)
# Construct: incubating human testicular microsomes; from tissue; host or cells: human testis, microsomes
# experiment: Inhibition of human testicular 17α-hydroxylase (pregnenolone substrate, testicular microsomes)
# Type: biochemical
# condition-info: read-out: % Inhibition 17α-hydroxylase, [I] = 100 nM
observed-property: inhibition at 0.1 µM (%)
The figure you give is taken to be in %; do not add the unit.

Example entries begin here.
{"molecule": "C[C@@H](O)C1=CC[C@H]2[C@@H]3CCC4=CC(=O)CC[C@]4(C)[C@H]3CC[C@]12C [Compound L-10, 20β-hydroxy-pregna-4,16-dien-3-one]", "observed-property": "inhibition at 0.1 µM", "readout-number": 14.9}
{"molecule": "CC1N[C@@]12CC[C@H]1[C@@H]3CC=C4C[C@@H](O)CC[C@]4(C)[C@H]3CC[C@@]12C (stereo partly shown)", "observed-property": "inhibition at 0.1 µM", "readout-number": 8.47}
{"molecule": "Cc1nc([C@H]2CC[C@H]3[C@@H]4CC=C5C[C@@H](O)CC[C@]5(C)[C@H]4CC[C@]23C)c[nH]1", "observed-property": "inhibition at 0.1 µM", "readout-number": 13.8}

Prompt: Would you mind telling me what inhibition at 0.1 µM value was observed for CC1N[C@]12CC[C@H]1[C@@H]3CC=C4C[C@@H](O)CC[C@]4(C)[C@H]3CC[C@@]12C (stereo partly shown) ?
Response: 0

====

# target-under-test: Human Prostatic 5α-Reductase (Homo sapiens, UniProt P31213)
# Sequence (P31213 whole entry): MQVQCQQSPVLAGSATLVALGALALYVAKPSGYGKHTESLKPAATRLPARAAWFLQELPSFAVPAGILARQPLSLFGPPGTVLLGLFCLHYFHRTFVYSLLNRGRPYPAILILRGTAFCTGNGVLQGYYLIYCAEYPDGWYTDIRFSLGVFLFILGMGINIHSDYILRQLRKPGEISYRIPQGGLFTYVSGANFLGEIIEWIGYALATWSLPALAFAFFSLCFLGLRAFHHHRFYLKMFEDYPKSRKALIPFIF
observed-property: Ki
Output should be the measured figure followed by the unit it is expressed in.

Prompt: Would you mind telling me what Ki value was observed for C[C@H](C=NO)[C@H]1CC[C@H]2[C@@H]3CCC4=CC(=O)CC[C@]4(C)[C@H]3CC[C@]12C ?
Response: 1.4 nM

====

# target-under-test: human 17α-hydroxylase/C17,20-lyase (Homo sapiens)
# Construct: incubating human testicular microsomes; from tissue; host or cells: human testis, microsomes
# Sequence (P05093 whole entry): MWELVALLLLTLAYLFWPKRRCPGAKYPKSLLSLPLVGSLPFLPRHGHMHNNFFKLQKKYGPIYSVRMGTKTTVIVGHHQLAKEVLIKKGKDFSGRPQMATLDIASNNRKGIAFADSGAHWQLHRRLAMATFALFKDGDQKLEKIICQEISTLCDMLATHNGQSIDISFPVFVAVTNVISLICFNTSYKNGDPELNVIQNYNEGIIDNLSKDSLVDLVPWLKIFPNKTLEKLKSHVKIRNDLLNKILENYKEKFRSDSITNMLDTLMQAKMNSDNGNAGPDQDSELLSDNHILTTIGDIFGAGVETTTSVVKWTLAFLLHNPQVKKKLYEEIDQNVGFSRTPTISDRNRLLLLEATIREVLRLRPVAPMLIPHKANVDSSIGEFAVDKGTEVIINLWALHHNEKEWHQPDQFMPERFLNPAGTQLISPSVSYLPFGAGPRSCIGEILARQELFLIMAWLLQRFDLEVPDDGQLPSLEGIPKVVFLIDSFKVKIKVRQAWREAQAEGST
# experiment: Inhibition of human testicular 17α-hydroxylase/C17,20-lyase (enzyme complex as a whole)
# Type: biochemical
# condition-info: one value for 17α-hydroxylase/lyase; NI = no inhibition; read-out: IC50 17α-hydroxylase/lyase (single entry)
observed-property: pIC50
Give only the number. pIC50 is defined as minus log10 of concentration in molar units.

Prompt: Would you mind telling me what pIC50 value was observed for Cc1nc([C@H]2CC[C@H]3[C@@H]4CC=C5C[C@@H](O)CC[C@]5(C)[C@H]4CC[C@]23C)c[nH]1 [Compound L-4] ?
Response: 6.40

====

Reported pIC50 is given for each of the following compounds.
# target-under-test: Human Prostatic 5α-Reductase (Homo sapiens)
# experiment: Inhibition of human prostatic 5α-reductase (prostatic microsomes, [3H]testosterone)
# condition-info: IC50 5α-reductase, Table 3; NI = no inhibition
Give only the number. pIC50 is defined as minus log10 of concentration in molar units.

Example entries begin here.
{"compound": "CC(C)(C)NC(=O)[C@H]1CC[C@H]2[C@@H]3CC[C@H]4NC(=O)C=C[C@]4(C)[C@H]3CC[C@]12C [Finasteride, reference compound]", "target-under-test": "Human Prostatic 5α-Reductase (Homo sapiens)", "pIC50": 7.84}
{"compound": "C[C@]12CC[C@H]3[C@@H](CCC4=CC(=O)CC[C@@]43C)[C@@H]1CC[C@@H]2c1c[nH]cn1", "target-under-test": "Human Prostatic 5α-Reductase (Homo sapiens)", "pIC50": 6.91}
{"compound": "CC(=O)C1=CC[C@H]2[C@@H]3CCC4=CC(=O)CC[C@]4(C)[C@H]3CC[C@]12C [Compound L-13, 16-dehydroprogesterone]", "target-under-test": "Human Prostatic 5α-Reductase (Homo sapiens)", "pIC50": 7.66}
{"compound": "C[C@@H](O)C1=CC[C@H]2[C@@H]3CCC4=CC(=O)CC[C@]4(C)[C@H]3CC[C@]12C [Compound L-10, 20β-hydroxy-pregna-4,16-dien-3-one]", "target-under-test": "Human Prostatic 5α-Reductase (Homo sapiens)", "pIC50": 7.68}

Prompt: Would you mind telling me what pIC50 value was observed for C[C@]12CCC(=O)C=C1CC[C@@H]1[C@@H]2CC[C@]2(C)C(c3c[nH]cn3)=CC[C@@H]12 ?
Response: 6.28

Prompt: What about CC(=NO)C1=CC[C@H]2[C@@H]3CCC4=CC(=O)CC[C@]4(C)[C@H]3CC[C@]12C [Compound L-2, 16-dehydroprogesterone-20-oxime] ?
Response: 7.28

Data credit: patent US5994334A
